Target: Pyruvate dehydrogenase E1 component subunit alpha, somatic form, mitochondrial (Sus scrofa) (UniProt P29804)
Sequence (whole entry): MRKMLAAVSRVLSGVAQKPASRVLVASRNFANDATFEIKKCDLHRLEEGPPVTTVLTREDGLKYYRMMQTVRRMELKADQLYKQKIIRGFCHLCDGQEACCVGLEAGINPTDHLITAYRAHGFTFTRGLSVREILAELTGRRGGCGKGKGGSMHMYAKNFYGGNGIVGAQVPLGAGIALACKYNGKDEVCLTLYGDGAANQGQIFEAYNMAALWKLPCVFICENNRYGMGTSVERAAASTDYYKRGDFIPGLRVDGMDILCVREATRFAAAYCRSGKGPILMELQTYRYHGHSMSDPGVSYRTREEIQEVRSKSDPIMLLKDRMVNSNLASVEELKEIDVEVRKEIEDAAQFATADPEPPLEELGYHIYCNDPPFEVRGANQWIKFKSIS
Test: Inhibition of porcine PDHc E1-subunit at 10 uM at 1:5 compound: thiamine pyrophosphate ratio incubated for 30 mins followed by pyruvate addition by microplate reader analysis relative to control

structure smiles: COc1ccc(C(=O)OCCc2scc(Cc3cnc(C)nc3N)c2C)cc1
inhibition: 72%
//
structure smiles: COc1ccc(C2(NCCc3scc(Cc4cnc(C)nc4N)c3C)COC2)cc1
inhibition: 65%
//
structure smiles: COc1ccc(C2(NCCc3cn(Cc4cnc(C)nc4N)nn3)COC2)cc1
inhibition: 20%
//
structure smiles: COc1ccc(C(=O)NCCc2cn(Cc3cnc(C)nc3N)nn2)cc1
inhibition: < 10%
//
structure smiles: COc1ccc(C(=O)OCCc2cn(Cc3cnc(C)nc3N)nn2)cc1
inhibition: 25%
//
structure smiles: COc1ccc(C(=O)NCCc2scc(Cc3cnc(C)nc3N)c2C)cc1
inhibition: 28%

###

Target: Pyruvate dehydrogenase E1 component subunit alpha, somatic form, mitochondrial (Sus scrofa)
Sequence (P29804 whole entry): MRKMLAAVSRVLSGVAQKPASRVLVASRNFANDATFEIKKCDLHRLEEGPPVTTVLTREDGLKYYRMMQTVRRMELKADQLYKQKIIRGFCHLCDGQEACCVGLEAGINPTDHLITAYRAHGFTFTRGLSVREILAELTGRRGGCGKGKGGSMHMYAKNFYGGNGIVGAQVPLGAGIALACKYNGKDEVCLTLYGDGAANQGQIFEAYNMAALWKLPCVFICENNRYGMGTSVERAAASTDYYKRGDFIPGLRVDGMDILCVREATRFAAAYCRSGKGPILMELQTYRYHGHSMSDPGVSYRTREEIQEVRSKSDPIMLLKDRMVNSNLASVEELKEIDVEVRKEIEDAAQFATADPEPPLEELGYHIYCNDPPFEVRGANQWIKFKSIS
Experiment: Binding affinity to porcine PDHc E1-subunit assessed as inhibition constant incubated for 30 mins followed by pyruvate addition by microplate reader analysis
pKi: −log10 of the molar value.
Threshold rule: pKi greater than or equal to 8 is YES; below that, NO.

compound: COc1ccc(C(=O)OCCc2cn(Cc3cnc(C)nc3N)nn2)cc1
class: NO
//
compound: Cc1ncc(CN2CS[C@H](CCO)[C@@H]2C)c(N)n1 (racemic)
class: NO
//
compound: COc1ccc(C(=O)OCC[C@H]2SCN(Cc3cnc(C)nc3N)[C@H]2C)cc1 (racemic)
class: NO
//
compound: COc1ccc(C(=O)NCCc2cn(Cc3cnc(C)nc3N)nn2)cc1
class: NO
//
compound: COc1ccc(C(=O)NCCc2scc(Cc3cnc(C)nc3N)c2C)cc1
class: NO
//
compound: COc1ccc(C2(NCCc3scc(Cc4cnc(C)nc4N)c3C)COC2)cc1
class: YES
//
compound: COc1ccc(C(=O)OCCc2scc(Cc3cnc(C)nc3N)c2C)cc1
class: YES
//
compound: Cc1ncc(Cn2cc(CCO)nn2)c(N)n1
class: NO
//
compound: COc1ccc(C2(NCCc3cn(Cc4cnc(C)nc4N)nn3)COC2)cc1
class: NO
//
compound: Cc1ncc(Cc2csc(CCO)c2C)c(N)n1
class: NO

###

molecular target: Pyruvate dehydrogenase E1 component subunit alpha, somatic form, mitochondrial (Sus scrofa, UniProt P29804); experiment: Inhibition of porcine PDHc E1-subunit incubated for 30 mins followed by pyruvate addition in presence of thiamine pyrophosphate by microplate reader analysis
pIC50: −log10 of the molar value.
Threshold rule: pIC50 greater than or equal to 5 is rule met; below that, rule not met.

molecule: COc1ccc(C(=O)OCC[C@H]2SCN(Cc3cnc(C)nc3N)[C@H]2C)cc1 (racemic)
class: rule met
--
molecule: Cc1ncc(Cc2coc(CCNC(=O)c3cccnc3)c2)c(N)n1
class: rule met
--
molecule: Cc1ncc(Cc2coc(CCOC(=O)c3ccc(Cl)cc3)c2)c(N)n1
class: rule met
--
molecule: Cc1ncc(Cn2cc(CCO)nn2)c(N)n1
class: rule not met
--
molecule: Cc1ncc(Cc2csc(CCO)c2C)c(N)n1
class: rule met
--
molecule: Cc1ncc(Cn2cc(CCNC(=O)c3ccc(Cl)cc3)nn2)c(N)n1
class: rule not met
--
molecule: COc1ccc(C2(NCCc3scc(Cc4cnc(C)nc4N)c3C)COC2)cc1
class: rule met
--
molecule: Cc1ncc(CN2CS[C@H](CCO)[C@@H]2C)c(N)n1 (racemic)
class: rule not met
--
molecule: COc1ccc(C(=O)OCCc2scc(Cc3cnc(C)nc3N)c2C)cc1
class: rule met
--
molecule: COc1ccc(C(=O)NCCc2cn(Cc3cnc(C)nc3N)nn2)cc1
class: rule not met
--
molecule: COc1ccc(C(=O)NCCc2scc(Cc3cnc(C)nc3N)c2C)cc1
class: rule met
--
molecule: COc1ccc(C(=O)OCCc2cn(Cc3cnc(C)nc3N)nn2)cc1
class: rule met
--
molecule: Cc1ncc(Cn2cc(CCOC(=O)c3cccnc3)nn2)c(N)n1
class: rule met

###

experiment: Permeability of the compound assessed as absorbed fraction by PAMPA assay; type: ADME
Threshold rule: permeability greater than or equal to 40% is class 1; below that, class 0.

structure smiles: COc1ccc(C2(NCCc3cn(Cc4cnc(C)nc4N)nn3)COC2)cc1
class: class 0
//
structure smiles: COc1ccc(C(=O)NCCc2cn(Cc3cnc(C)nc3N)nn2)cc1
class: class 0
//
structure smiles: COc1ccc(C(=O)NCCc2scc(Cc3cnc(C)nc3N)c2C)cc1
class: class 0
//
structure smiles: COc1ccc(C2(NCCc3scc(Cc4cnc(C)nc4N)c3C)COC2)cc1
class: class 1
//
structure smiles: COc1ccc(C(=O)OCCc2cn(Cc3cnc(C)nc3N)nn2)cc1
class: class 0

###

# reported remaining at 2 h; entries follow
test: Stability of the compound assessed as compound remaining in 1 M aqueous NaOH at 37 degreeC incubated for 2 hrs by NMR analysis; format: physicochemical; settings: read-out: Stability

structure smiles: COc1ccc(C2(NCCc3scc(Cc4cnc(C)nc4N)c3C)COC2)cc1
unit spec: %
relation qualifier: >
remaining at 2 h: 90
//
structure smiles: COc1ccc(C(=O)OCCc2scc(Cc3cnc(C)nc3N)c2C)cc1
unit spec: %
relation qualifier: =
remaining at 2 h: 15

###

Target: Pyruvate dehydrogenase E1 component subunit alpha, somatic form, mitochondrial (Sus scrofa) (UniProt P29804)
Sequence (whole entry): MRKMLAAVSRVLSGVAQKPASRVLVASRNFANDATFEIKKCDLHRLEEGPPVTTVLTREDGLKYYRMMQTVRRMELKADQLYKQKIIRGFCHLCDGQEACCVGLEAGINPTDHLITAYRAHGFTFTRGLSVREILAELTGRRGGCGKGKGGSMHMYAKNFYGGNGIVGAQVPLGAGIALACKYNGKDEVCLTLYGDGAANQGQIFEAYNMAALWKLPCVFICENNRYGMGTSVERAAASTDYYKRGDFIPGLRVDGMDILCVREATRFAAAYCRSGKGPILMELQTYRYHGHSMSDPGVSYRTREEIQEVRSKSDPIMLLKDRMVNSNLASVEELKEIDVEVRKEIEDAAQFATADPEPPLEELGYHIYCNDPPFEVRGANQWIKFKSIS
Test: Binding affinity to porcine PDHc E1-subunit assessed as KM(TPP)/Ki ratio incubated for 30 mins followed by pyruvate addition by microplate reader analysis
Threshold rule: Ratio greater than or equal to 3 is 1.0; below that, 0.0.

compound: COc1ccc(C2(NCCc3scc(Cc4cnc(C)nc4N)c3C)COC2)cc1
class: 1.0

compound: Cc1ncc(CN2CS[C@H](CCO)[C@@H]2C)c(N)n1 (racemic)
class: 0.0

compound: COc1ccc(C(=O)NCCc2cn(Cc3cnc(C)nc3N)nn2)cc1
class: 0.0

compound: COc1ccc(C2(NCCc3cn(Cc4cnc(C)nc4N)nn3)COC2)cc1
class: 0.0

compound: COc1ccc(C(=O)OCCc2scc(Cc3cnc(C)nc3N)c2C)cc1
class: 1.0

compound: Cc1ncc(Cc2csc(CCO)c2C)c(N)n1
class: 0.0

compound: COc1ccc(C(=O)OCCc2cn(Cc3cnc(C)nc3N)nn2)cc1
class: 0.0

compound: COc1ccc(C(=O)NCCc2scc(Cc3cnc(C)nc3N)c2C)cc1
class: 0.0

compound: COc1ccc(C(=O)OCC[C@H]2SCN(Cc3cnc(C)nc3N)[C@H]2C)cc1 (racemic)
class: 0.0

Each recorded value in this set is attributed to ChEMBL document CHEMBL5356955.
